Where these numbers come from: paper PMC9737648

Tested on: ovarian cancer cells (A2780)
assay method text: MTT cytotoxicity assay, A2780
Type: cell-based, human
condition details: Homo sapiens, A2780, 72 h, 72-h incubation
experimental readout: IC50 (µM)
Give bare numbers, in µM.

# compound, IC50 [µM]
rows = [
    ("NCCCN1C(=O)NC(CC(=O)NC(CO)C(N)=O)c2cc(N)ccc21 (stereo not shown) [CA1-7]", 79.8),
    ("COc1ccccc1S(=O)(=O)Nc1ccc2c(c1)C(CC(N)=O)NC(=O)N2C (stereo not shown) [CA7-a]", 82.9),
    ("NCCCN1C(=O)NC(CC(=O)NC(CO)C(N)=O)c2cc(NC(=O)CCc3cccnc3)ccc21 (stereo not shown) [CA1-h]", 86.1),
    ("CC(C)CCN1C(=O)NC(CC(=O)NC(CCCN)C(N)=O)c2cc(NC(=O)CCc3cccnc3)ccc21 (stereo not shown) [CA3]", 82.9),
]

# per-item lookup of IC50; items listed below
1. NCCCN1C(=O)NC(CC(=O)NC(CO)C(N)=O)c2cc(NC(=O)c3ccncc3)ccc21 (stereo not shown) [CA1-a]
2. CC(C)(NC(=O)CC1NC(=O)N(Cc2ccccc2)c2ccc(NC(=O)COc3ccccc3)cc21)C(N)=O (stereo not shown) [CA4]
3. NCCCN1C(=O)NC(CC(=O)NC(CO)C(N)=O)c2cc([N+](=O)[O-])ccc21 (stereo not shown) [CA1-6]

[A]
1: 80; 2: 66.2; 3: 83.2
